Data origin: patent US8883720B2

Assay: in vitro
Assay type: cell-based
Conditions: human
Bridge positions count the residues as written; N and C are the ends. Square brackets hold non-standard residues; d marks the D form. Peptide text beside a SMILES is read from it. Abu(3S-NH2) = C[C@H](N)[C@H](N)C(=O)O; Lac = C[C@H](O)C(=O)O
Quantity kind: GI50 at 48 h (nM)
One number for each entry, in nM.

// returns reported GI50 at 48 h for input C[C@@H]1NC(=O)[C@H](Cc2c[nH]cn2)NC(=O)[C@H](Cc2ccc(O)cc2)NC(=O)[C@@H]2CCCN2C(=O)[C@H]2CCCN2C(=O)[C@H](CCCCN)NC(=O)[C@H](CCC(N)=O)NC(=O)[C@H](Cc2ccc(O)cc2)NC(=O)[C@@H]2CSSC[C@H](NC1=O)C(=O)N[C@@H](CO)C(=O)O[C@@H](C)C(=O)N1CCC[C@@H]1C(=O)N[C@@H]([C@H](C)N)C(=O)N[C@@H](CCCNC(=N)N)C(=O)N[C@@H](Cc1ccc(O)cc1)C(=O)N2 [Example 1] (cyclo(YHACS[Lac][dP][Abu(3S-NH2)]RYCYQK[dP]P); disulfide 4-11)
2000

====

Test system: human red blood cells (hRBC)
Type: cell-based
Details: red cells of human, 1 h
Bridge positions count the residues as written; N and C are the ends. Square brackets hold non-standard residues; d marks the D form. Peptide text beside a SMILES is read from it. Abu(3S-NH2) = C[C@H](N)[C@H](N)C(=O)O; Lac = C[C@H](O)C(=O)O
Quantity kind: Hemolysis at 100 μM (%)
Answers are plain numbers, in %.

C[C@@H]1NC(=O)[C@H](Cc2c[nH]cn2)NC(=O)[C@H](Cc2ccc(O)cc2)NC(=O)[C@@H]2CCCN2C(=O)[C@H]2CCCN2C(=O)[C@H](CCCCN)NC(=O)[C@H](CCC(N)=O)NC(=O)[C@H](Cc2ccc(O)cc2)NC(=O)[C@@H]2CSSC[C@H](NC1=O)C(=O)N[C@@H](CO)C(=O)N[C@@H](C)C(=O)N1CCC[C@@H]1C(=O)O[C@@H](CCN)C(=O)N[C@@H](CCCNC(=N)N)C(=O)N[C@@H](Cc1ccc(O)cc1)C(=O)N2 = 0.7

Could you now look at the following compound, please?
For the compound shown here, C[C@@H]1NC(=O)[C@H](Cc2c[nH]cn2)NC(=O)[C@H](Cc2ccc(O)cc2)NC(=O)[C@@H]2CCCN2C(=O)[C@H]2CCCN2C(=O)[C@H](CCCCN)NC(=O)[C@H](CCC(N)=O)NC(=O)[C@H](Cc2ccc(O)cc2)NC(=O)[C@@H]2CSSC[C@H](NC1=O)C(=O)N[C@@H](CO)C(=O)O[C@@H](C)C(=O)N1CCC[C@@H]1C(=O)N[C@@H]([C@H](C)N)C(=O)N[C@@H](CCCNC(=N)N)C(=O)N[C@@H](Cc1ccc(O)cc1)C(=O)N2 [Example 1] (cyclo(YHACS[Lac][dP][Abu(3S-NH2)]RYCYQK[dP]P); disulfide 4-11) , give the reported Hemolysis at 100 μM.
0.2

====

Experiment: in vitro
Type: cell-based
Details: African green monkey
Bridge positions count the residues as written; N and C are the ends. Square brackets hold non-standard residues; d marks the D form. Peptide text beside a SMILES is read from it. Abu(3S-NH2) = C[C@H](N)[C@H](N)C(=O)O; Lac = C[C@H](O)C(=O)O
Quantity kind: GI50 at 48 h

Item C[C@@H]1NC(=O)[C@H](Cc2c[nH]cn2)NC(=O)[C@H](Cc2ccc(O)cc2)NC(=O)[C@@H]2CCCN2C(=O)[C@H]2CCCN2C(=O)[C@H](CCCCN)NC(=O)[C@H](CCC(N)=O)NC(=O)[C@H](Cc2ccc(O)cc2)NC(=O)[C@@H]2CSSC[C@H](NC1=O)C(=O)N[C@H](CO)C(=O)O[C@@H](C)C(=O)N1CCC[C@@H]1C(=O)N[C@@H]([C@H](C)N)C(=O)N[C@@H](CCCNC(=N)N)C(=O)N[C@@H](Cc1ccc(O)cc1)C(=O)N2 [Example 7] (cyclo(YHAC[dS][Lac][dP][Abu(3S-NH2)]RYCYQK[dP]P); disulfide 4-11) has what recorded GI50 at 48 h?
> 50 µM

====

Molecular target: human CXCR4 (Homo sapiens, UniProt P61073)
Construct: expressed in transfected cells; host or cells: mouse pre-B cell line 300-19
Sequence (P61073 whole entry): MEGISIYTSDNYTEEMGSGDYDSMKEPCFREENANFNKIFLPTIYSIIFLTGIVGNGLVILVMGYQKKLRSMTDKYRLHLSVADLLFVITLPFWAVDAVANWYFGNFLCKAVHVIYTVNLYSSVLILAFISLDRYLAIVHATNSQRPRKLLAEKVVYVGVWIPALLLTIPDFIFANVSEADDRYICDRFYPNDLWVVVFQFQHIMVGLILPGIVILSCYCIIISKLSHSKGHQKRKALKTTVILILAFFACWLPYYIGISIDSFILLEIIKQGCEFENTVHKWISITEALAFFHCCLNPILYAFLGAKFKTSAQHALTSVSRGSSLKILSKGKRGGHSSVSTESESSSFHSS
Test: Ca2+-assay: CXCR4-antagonizing activity (SDF-1 induced calcium mobilization)
Format: cell-based
Conditions: mouse pre-B cell line 300-19 stably transfected with human CXCR4, read-out: IC50% [nM] ± SD, CXCR4 receptor
Bridge positions count the residues as written; N and C are the ends. Square brackets hold non-standard residues; d marks the D form. Peptide text beside a SMILES is read from it. Abu(3S-NH2) = C[C@H](N)[C@H](N)C(=O)O; Hpla = O=C(O)[C@@H](O)Cc1ccc(O)cc1
Quantity kind: IC50 (nM)
One number for each entry, in nM.

Can you look up the measured IC50 of C[C@@H]1NC(=O)[C@H](Cc2c[nH]cn2)NC(=O)[C@H](Cc2ccc(O)cc2)NC(=O)[C@@H]2CCCN2C(=O)[C@H]2CCCN2C(=O)[C@H](CCCCN)NC(=O)[C@H](Cc2ccc(O)cc2)OC(=O)[C@H](Cc2ccc(O)cc2)NC(=O)[C@@H]2CSSC[C@H](NC1=O)C(=O)N[C@@H](CO)C(=O)N[C@@H](C)C(=O)N1CCC[C@@H]1C(=O)N[C@@H]([C@H](C)N)C(=O)N[C@@H](CCCNC(=N)N)C(=O)N[C@@H](Cc1ccc(O)cc1)C(=O)N2 [Example 4] (cyclo(YHACSA[dP][Abu(3S-NH2)]RYCY[Hpla]K[dP]P); disulfide 4-11) for me?
4.4

====

Experiment: in vitro
Assay type: cell-based
Details: African green monkey
Numbered stars: 1 amine (or outer) side, 2 acyl side, 3 side chain; on linkers, the order of the positions; unused ones are H or OH. Bridge positions count the residues as written; N and C are the ends. Square brackets hold non-standard residues; d marks the D form. Peptide text beside a SMILES is read from it. Abu(3S-NH2) = C[C@H](N)[C@H](N)C(=O)O; X1 = NCC[C@H](O[*:1])C(=O)[*:2]
Quantity kind: GI50 at 48 h

Given the compound C[C@@H]1NC(=O)[C@H](CCN)OC(=O)[C@H](Cc2ccc(O)cc2)NC(=O)[C@@H]2CCCN2C(=O)[C@H]2CCCN2C(=O)[C@H](CCCCN)NC(=O)[C@H](CCC(N)=O)NC(=O)[C@H](Cc2ccc(O)cc2)NC(=O)[C@@H]2CSSC[C@H](NC1=O)C(=O)N[C@@H](CO)C(=O)N[C@@H](C)C(=O)N1CCC[C@@H]1C(=O)N[C@@H]([C@H](C)N)C(=O)N[C@@H](CCCNC(=N)N)C(=O)N[C@@H](Cc1ccc(O)cc1)C(=O)N2 [Example 6] (cyclo(Y[X1]ACSA[dP][Abu(3S-NH2)]RYCYQK[dP]P); disulfide 4-11) , what is its reported GI50 at 48 h?
> 50 µM

====

Assignment: determine reported half-life at 10 μM for the given compounds.
Test: Plasma stability, mouse plasma
Type: in vitro ADME
Details: 37° C., sampled up to 240 min, read-out: Plasmastability mouse pl. T1/2
Numbered stars: 1 amine (or outer) side, 2 acyl side, 3 side chain; on linkers, the order of the positions; unused ones are H or OH. Bridge positions count the residues as written; N and C are the ends. Square brackets hold non-standard residues; d marks the D form. Peptide text beside a SMILES is read from it. Abu(3S-NH2) = C[C@H](N)[C@H](N)C(=O)O; X1 = NCC[C@H](O[*:1])C(=O)[*:2]

C[C@@H]1NC(=O)[C@H](Cc2c[nH]cn2)NC(=O)[C@H](Cc2ccc(O)cc2)NC(=O)[C@@H]2CCCN2C(=O)[C@H]2CCCN2C(=O)[C@H](CCN)OC(=O)[C@@H](CCC(N)=O)NC(=O)[C@H](Cc2ccc(O)cc2)NC(=O)[C@@H]2CSSC[C@H](NC1=O)C(=O)N[C@@H](CCCNC(=N)N)C(=O)N[C@@H](C)C(=O)N1CCC[C@@H]1C(=O)N[C@@H]([C@H](C)N)C(=O)N[C@@H](CCCNC(=N)N)C(=O)N[C@@H](Cc1ccc(O)cc1)C(=O)N2 [Example 10] (cyclo(YHACRA[dP][Abu(3S-NH2)]RYCY[dQ][X1][dP]P); disulfide 4-11) = 5.3 min

What value of half-life at 10 μM has been recorded for this entry: C[C@@H]1NC(=O)[C@H](CCN)OC(=O)[C@H](Cc2ccc(O)cc2)NC(=O)[C@@H]2CCCN2C(=O)[C@H]2CCCN2C(=O)[C@H](CCCCN)NC(=O)[C@H](CCC(N)=O)NC(=O)[C@H](Cc2ccc(O)cc2)NC(=O)[C@@H]2CSSC[C@H](NC1=O)C(=O)N[C@@H](CO)C(=O)N[C@@H](C)C(=O)N1CCC[C@@H]1C(=O)N[C@@H]([C@H](C)N)C(=O)N[C@@H](CCCNC(=N)N)C(=O)N[C@@H](Cc1ccc(O)cc1)C(=O)N2 [Example 6] (cyclo(Y[X1]ACSA[dP][Abu(3S-NH2)]RYCYQK[dP]P); disulfide 4-11)
4.3 min
